// reported GI50 per item
System: TK-10
Experiment: NCI tumour cell line growth inhibition, 48 h
Active and inactive are the calls of the source. No stated cut-off is given here; in the data, active = GI50 up to about 1.1 µM and inactive = higher.
Reported endpoint: GI50

>  <Compound>
CCCCCCCCCCCCOP(=O)(O)OCC(N)C(=O)O (configuration not stated)

>  <Assay result>
24.7 µM (inactive)

$$$$
>  <Compound>
Cc1ccc2c(=O)[nH]sc2c1

>  <Assay result>
18.4 µM (inactive)

$$$$
>  <Compound>
Cc1ccc(N/N=C/C2=CC(C)(C)C(C#N)(C#N)C(O)=C2C#N)cc1

>  <Assay result>
99.5 µM (inactive)

$$$$
>  <Compound>
CCOC(=O)c1cccc(NC(=O)CBr)c1

>  <Assay result>
1.67 µM (inactive)

$$$$
>  <Compound>
O=C(CC(C(=O)c1ccco1)c1cccs1)c1cccs1 (configuration not stated)

>  <Assay result>
> 100 µM (inactive)

$$$$
>  <Compound>
COc1ccccc1/C(=N\OCCC(=O)O)c1cccs1

>  <Assay result>
> 100 µM (inactive)

$$$$
>  <Compound>
O=C(Nc1ccc(F)cc1)C(=O)C(C(=O)c1ccccc1F)C1OC(=O)c2ccccc21 (configuration not stated)

>  <Assay result>
> 100 µM (inactive)

$$$$

---

Tested on: M14
Experiment: NCI tumour cell line growth inhibition, 48 h
Activity calls are given as the source filed them. Rule as the data show it: active = GI50 up to about 1.1 µM and inactive = higher.
Classes used: class 1 for active, class 0 for inactive

>  <Molecule>
O=C1CSc2nnc(CCCCCCCCc3nnc4n3NC(=O)CS4)n2N1

>  <Label class>
class 0

$$$$
>  <Molecule>
O=C(O)c1c(CC(Cc2ccc3c(c2)CCCC3)C(=O)O)ccc2c1CCCC2 (configuration not stated)

>  <Label class>
class 0

$$$$
>  <Molecule>
Cn1ccnc1CCc1ccc(F)cc1F

>  <Label class>
class 0

$$$$
>  <Molecule>
Cc1cc2c(=O)cc(-c3ccc(C(F)(F)F)cc3)oc2c(C(=O)O)c1C

>  <Label class>
class 0

$$$$
>  <Molecule>
C[Si](C)(C)C#CCO[Si](C)(C)C

>  <Label class>
class 0

$$$$
>  <Molecule>
CC(C)(C)[Si](C)(C)OCC1OC(n2cnc3c(=O)[nH]c(N)nc32)C(O[Si](C)(C)C(C)(C)C)C1O[Si](C)(C)C(C)(C)C (configuration not stated)

>  <Label class>
class 0

$$$$
>  <Molecule>
O=C(O)c1ccccc1SCc1cccc2c(=O)c3ccc(Cl)cc3oc12

>  <Label class>
class 0

$$$$
>  <Molecule>
CCN(CC)C(=O)C1=C(C)NC(C)=C(C(=O)N(CC)CC)C1

>  <Label class>
class 0

$$$$
>  <Molecule>
CSC1=N/C(=C\c2ccco2)C(=O)N1CN1CCOCC1

>  <Label class>
class 0

$$$$
>  <Molecule>
C=C1C(=O)C23CC1C[C@H](OC(C)=O)C2C1(C)C(OC(C)=O)C[C@H](O)C(C)(C)[C@H]1C(O)[C@@H]3OC(C)=O (some centres not stated)

>  <Label class>
class 0

$$$$
>  <Molecule>
COC(=O)c1cc2cc3c(c(O)c2c(=O)o1)O[C@@]1(Oc2c(O)c4c(c(O)c2[C@H]1OC1CC(OC)C(O)C(C)O1)C(=O)C=C(OC)C4=O)[C@H](O)C3 (some centres not stated)

>  <Label class>
class 0

$$$$
>  <Molecule>
CC(=O)/C(=C/NC(=S)c1cccnc1)C(=O)Nc1ccccc1C

>  <Label class>
class 0

$$$$
>  <Molecule>
CN(C)c1ccc(-c2[nH]c(=O)c3ccccc3[n+]2C)cc1

>  <Label class>
class 0

$$$$
>  <Molecule>
CCOC(=O)C1=C(C)OC(=O)[C@@]2(OC)C=C(Cl)[C@@]12C

>  <Label class>
class 0

$$$$
>  <Molecule>
Cc1ccc(S(=O)(=O)N/N=C/c2oc(-c3ccccc3Cl)c(-c3ccccc3Cl)c2[N+](=O)[O-])cc1

>  <Label class>
class 0

$$$$
>  <Molecule>
Clc1ccc(NCNC2Nc3ccccc3N2)cc1Cl

>  <Label class>
class 0

$$$$
>  <Molecule>
O=C(/C=C/c1ccccc1)Oc1ccc(C(=O)/C=C/c2ccc(Cl)cc2)cc1

>  <Label class>
class 0

$$$$
>  <Molecule>
Fc1ccccc1/N=c1\oc2ccc(Br)cc2cc1-c1nc2ccccc2[nH]1

>  <Label class>
class 0

$$$$
>  <Molecule>
CCN(CC)c1ccc(/C=C/C(=O)c2cc(C(C)(C)C)c(O)c(C(C)(C)C)c2)cc1

>  <Label class>
class 0

$$$$
>  <Molecule>
O=C(O)CCCSc1nc2ccccc2s1

>  <Label class>
class 0

$$$$
>  <Molecule>
Cn1c(COC(=O)NC2CCCCC2)c(COC(=O)NC2CCCCC2)c2ccc3cc(Cl)c(Cl)cc3c21

>  <Label class>
class 0

$$$$
>  <Molecule>
CCCCCc1cc2cc3c(c(O)c2c(=O)[nH]1)C1(CC3)C(=O)c2c(O)c3c(c(O)c2C1=O)C(=O)C(OC)=CC3=O (configuration not stated)

>  <Label class>
class 1

$$$$
>  <Molecule>
O=C(CC(C(=O)c1ccco1)c1cccs1)c1cccs1 (configuration not stated)

>  <Label class>
class 0

$$$$
>  <Molecule>
CCOC(=O)CC[C@@H](NC(=O)c1ccc(NCc2ccc3nc(OC)c(OC)nc3c2)cc1)C(=O)OCC

>  <Label class>
class 0

$$$$
>  <Molecule>
N#C[C@@H](c1nc2ccccc2s1)c1ncccc1[N+](=O)[O-]

>  <Label class>
class 0

$$$$
>  <Molecule>
O=C(ON=c1c2ccccc2ccc2ccccc12)c1ccccc1

>  <Label class>
class 0

$$$$
>  <Molecule>
COc1ccc(C(OCC2OC(n3cc(C)c(=O)[nH]c3=O)CC2n2cc(Cn3cc(Br)c(=O)[nH]c3=O)nn2)(c2ccccc2)c2ccccc2)cc1 (configuration not stated)

>  <Label class>
class 0

$$$$

# credit: ChEMBL document CHEMBL1201862
